All values here come from patent US11203571B2.

Biological target: human Nav1.8 (Homo sapiens (Human), UniProt Q9Y5Y9)
Sequence (Q9Y5Y9 whole entry): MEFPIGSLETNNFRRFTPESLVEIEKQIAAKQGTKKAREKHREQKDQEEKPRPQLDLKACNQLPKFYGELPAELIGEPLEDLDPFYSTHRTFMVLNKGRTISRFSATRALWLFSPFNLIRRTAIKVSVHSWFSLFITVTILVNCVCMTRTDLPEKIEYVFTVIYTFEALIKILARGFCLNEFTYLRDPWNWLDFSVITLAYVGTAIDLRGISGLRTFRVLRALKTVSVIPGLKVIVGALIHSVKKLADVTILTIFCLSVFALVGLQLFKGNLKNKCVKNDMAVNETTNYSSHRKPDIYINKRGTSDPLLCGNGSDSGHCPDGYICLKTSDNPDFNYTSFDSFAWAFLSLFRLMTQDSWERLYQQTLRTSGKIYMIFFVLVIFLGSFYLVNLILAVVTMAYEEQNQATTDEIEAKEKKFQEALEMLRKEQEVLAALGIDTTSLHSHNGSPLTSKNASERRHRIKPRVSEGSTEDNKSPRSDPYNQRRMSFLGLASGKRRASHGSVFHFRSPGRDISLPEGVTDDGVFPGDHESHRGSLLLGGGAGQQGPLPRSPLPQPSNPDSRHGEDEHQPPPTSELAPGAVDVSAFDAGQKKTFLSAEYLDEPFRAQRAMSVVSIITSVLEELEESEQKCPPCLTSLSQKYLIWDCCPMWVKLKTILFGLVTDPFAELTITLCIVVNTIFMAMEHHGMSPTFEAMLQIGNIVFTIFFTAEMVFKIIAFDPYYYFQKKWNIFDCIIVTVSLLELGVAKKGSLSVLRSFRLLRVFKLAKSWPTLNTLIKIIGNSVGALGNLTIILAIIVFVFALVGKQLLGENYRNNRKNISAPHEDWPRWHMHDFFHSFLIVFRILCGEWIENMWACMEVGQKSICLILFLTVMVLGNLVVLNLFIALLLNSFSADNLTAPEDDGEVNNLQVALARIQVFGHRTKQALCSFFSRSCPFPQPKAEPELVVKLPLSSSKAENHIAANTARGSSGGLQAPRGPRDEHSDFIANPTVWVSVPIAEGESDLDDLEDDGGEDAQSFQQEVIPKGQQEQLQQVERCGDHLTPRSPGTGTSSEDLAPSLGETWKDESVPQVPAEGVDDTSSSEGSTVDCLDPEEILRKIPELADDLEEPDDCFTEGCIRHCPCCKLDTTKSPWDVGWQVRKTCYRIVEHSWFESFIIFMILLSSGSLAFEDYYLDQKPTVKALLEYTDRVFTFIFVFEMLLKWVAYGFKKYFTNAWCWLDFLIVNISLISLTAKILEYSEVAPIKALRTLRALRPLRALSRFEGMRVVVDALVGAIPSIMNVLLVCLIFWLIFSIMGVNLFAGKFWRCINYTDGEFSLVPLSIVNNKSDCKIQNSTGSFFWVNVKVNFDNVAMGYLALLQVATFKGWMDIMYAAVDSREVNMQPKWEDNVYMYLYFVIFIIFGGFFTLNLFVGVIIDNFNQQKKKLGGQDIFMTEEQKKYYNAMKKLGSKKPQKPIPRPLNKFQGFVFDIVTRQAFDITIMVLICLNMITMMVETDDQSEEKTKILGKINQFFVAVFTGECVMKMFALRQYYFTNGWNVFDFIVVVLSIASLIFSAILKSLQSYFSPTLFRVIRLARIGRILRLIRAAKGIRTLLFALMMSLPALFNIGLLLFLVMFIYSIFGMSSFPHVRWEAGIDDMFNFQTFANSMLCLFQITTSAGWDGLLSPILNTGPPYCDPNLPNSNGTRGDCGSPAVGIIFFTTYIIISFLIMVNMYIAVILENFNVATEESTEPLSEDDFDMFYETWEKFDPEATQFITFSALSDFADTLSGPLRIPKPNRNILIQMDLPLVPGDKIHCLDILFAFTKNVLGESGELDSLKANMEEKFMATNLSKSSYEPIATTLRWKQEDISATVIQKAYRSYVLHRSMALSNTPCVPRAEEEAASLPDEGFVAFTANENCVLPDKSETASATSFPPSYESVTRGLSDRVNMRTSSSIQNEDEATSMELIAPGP
Test: E-VIPR optical membrane potential assay with electrical stimulation
Conditions: HEK cells expressing human Nav1.8
metric_name: IC50 (nM)
One number for each entry, in nM.

NS(=O)(=O)c1cccc(NC(=O)c2ccc(OC(F)(F)F)cc2Oc2ccc(F)cc2)c1; 9

I need IC50 for every entry listed below, if you could help.
1. COc1ccc(Oc2cc(Cl)ccc2C(=O)Nc2cccc(S(N)(=O)=O)c2)c(Cl)c1
2. COc1ccc(Oc2cc(Cl)cc(Cl)c2C(=O)Nc2cccc(S(N)(=O)=O)c2)c(F)c1
3. CCOc1ccc(Oc2ccc(C(F)(F)F)cc2C(=O)Nc2cccc(S(N)(=O)=O)c2)cc1
4. NS(=O)(=O)c1cccc(NC(=O)c2ccc(OC(F)(F)F)cc2Oc2ccc(F)cc2Cl)c1

Data returned:
[15, 5, 14, 4]

I need IC50 for every entry listed below, if you could help.
1. COc1ccc(Oc2ccc(C(F)(F)F)cc2C(=O)Nc2cccc(S(N)(=O)=O)c2)c(OC)c1
2. COc1ccc(F)cc1Oc1cc(C(F)(F)F)cc(C(F)(F)F)c1C(=O)Nc1cccc(S(N)(=O)=O)c1

Data returned:
4
16

I need IC50 for every entry listed below, if you could help.
1. Cc1cc(F)ccc1Oc1cc(Cl)ccc1C(=O)Nc1cccc(S(N)(=O)=O)c1
2. Cc1cc(F)ccc1Oc1cccc(C(F)(F)F)c1C(=O)Nc1cccc(S(N)(=O)=O)c1
3. COc1ccc(Oc2cc(Cl)c(Cl)cc2C(=O)Nc2cccc(S(N)(=O)=O)c2)c(F)c1

Data returned:
1. 16
2. 9
3. 8

---

Give HLM: percent unchanged after 30 min for every item shown.
Assay: Human liver microsome assay
Assay type: in vitro ADME
Details: 1 uM substrate, 0.5 mg/mL liver microsome, 2 mM NADPH, 37° C., referenced against time zero control
Procedure: Human Liver Microsome Assay Protocol Liver microsomal stability data were generated as follows. Substrates were incubated at 37° C. and shaken for 30 minutes in a phosphate buffered solution with human liver microsomes and the cofactor NADPH. […] Following a centrifugation step, aliquots from the quenched incubations were further diluted with 4 volume equivalents of a 50% aqueous methanol solution and then subjected to LC/MS/MS analysis for quantitation of parent substrate. […]
Answers are plain numbers, in %.

COc1ccc(Oc2cc(Cl)c(Cl)cc2C(=O)Nc2cccc(S(N)(=O)=O)c2)c(F)c1; 88
NS(=O)(=O)c1cccc(NC(=O)c2ccc(C(F)(F)F)cc2Oc2ccc(F)cc2)c1; 83
NS(=O)(=O)c1cccc(NC(=O)c2cc(C(F)(F)F)ccc2Oc2ccc(OC(F)(F)F)cc2)c1; 104

I need HLM: percent unchanged after 30 min for every entry listed below, if you could help.
1. COc1cc(F)ccc1Oc1cc(Cl)ccc1C(=O)Nc1cccc(S(N)(=O)=O)c1
2. COc1cc(Cl)ccc1Oc1cc(C(F)(F)C(F)(F)F)ccc1C(=O)Nc1cccc(S(N)(=O)=O)c1
3. Cc1cc(F)ccc1Oc1cc(C(F)(F)F)ccc1C(=O)Nc1cccc(S(N)(=O)=O)c1
4. CCCOc1ccccc1Oc1cc(C(F)(F)F)ccc1C(=O)Nc1cccc(S(N)(=O)=O)c1

Data returned:
1. 81
2. 81
3. 98
4. 67

I need HLM: percent unchanged after 30 min for every entry listed below, if you could help.
1. NS(=O)(=O)c1cccc(NC(=O)c2cc(C(F)(F)F)ccc2Oc2ccc(OC(F)F)cc2)c1
2. CCOc1ccc(Oc2cc(C(F)(F)F)ccc2C(=O)Nc2cccc(S(N)(=O)=O)c2)cc1
3. NS(=O)(=O)c1cccc(NC(=O)c2ccc(C(F)(F)F)cc2Oc2ccccc2Cl)c1

Data returned:
95
72
95

I need HLM: percent unchanged after 30 min for every entry listed below, if you could help.
1. Cc1cc(F)ccc1Oc1cc(C#N)ccc1C(=O)Nc1cccc(S(N)(=O)=O)c1
2. COc1ccc(Oc2cc(C(F)(F)F)ccc2C(=O)Nc2cccc(S(N)(=O)=O)c2)cc1F
3. NS(=O)(=O)c1cccc(NC(=O)c2c(Oc3ccc(F)cc3)cc(C(F)(F)F)cc2C(F)(F)F)c1
4. NS(=O)(=O)c1cccc(NC(=O)c2cc(Cl)c(Cl)cc2Oc2ccc(F)cc2)c1
5. COc1cc(F)ccc1Oc1cc(C(F)(F)C(F)(F)F)ccc1C(=O)Nc1cccc(S(N)(=O)=O)c1
6. NS(=O)(=O)c1cccc(NC(=O)c2c(Oc3ccc(F)cc3Cl)cccc2C(F)(F)F)c1
7. Cc1cc(Cl)ccc1Oc1cccc(C(F)(F)F)c1C(=O)Nc1cccc(S(N)(=O)=O)c1
8. COc1ccc(Oc2cc(Cl)c(Cl)cc2C(=O)Nc2cccc(S(N)(=O)=O)c2)c(Cl)c1

Data returned:
102
90
105
104
87
102
107
77

I need HLM: percent unchanged after 30 min for every entry listed below, if you could help.
1. NS(=O)(=O)c1cccc(NC(=O)c2ccc(OC(F)(F)F)cc2Oc2ccccc2Cl)c1
2. COc1ccccc1Oc1cccc(C(F)(F)F)c1C(=O)Nc1cccc(S(N)(=O)=O)c1
3. COc1cc(F)ccc1Oc1ccc(Cl)cc1C(=O)Nc1cccc(S(N)(=O)=O)c1
4. COc1ccc(Oc2cc(OC(F)(F)F)ccc2C(=O)Nc2cccc(S(N)(=O)=O)c2)c(Cl)c1

Data returned:
1: 92; 2: 78; 3: 86; 4: 81

I need HLM: percent unchanged after 30 min for every entry listed below, if you could help.
1. COc1ccc(Oc2cc(C(F)(F)F)cc(C(F)(F)F)c2C(=O)Nc2cccc(S(N)(=O)=O)c2)c(F)c1
2. NS(=O)(=O)c1cccc(NC(=O)c2c(Oc3ccccc3Cl)cccc2C(F)(F)F)c1

Data returned:
1. 69
2. 102

I need HLM: percent unchanged after 30 min for every entry listed below, if you could help.
1. COc1c(F)cccc1Oc1ccc(C(F)(F)F)cc1C(=O)Nc1cccc(S(N)(=O)=O)c1
2. COc1ccc(Oc2cc(Cl)ccc2C(=O)Nc2cccc(S(N)(=O)=O)c2)c(Cl)c1

Data returned:
1. 100
2. 82

I need HLM: percent unchanged after 30 min for every entry listed below, if you could help.
1. Cc1cccc(Oc2ccc(F)cc2Cl)c1C(=O)Nc1cccc(S(N)(=O)=O)c1
2. NS(=O)(=O)c1cccc(NC(=O)c2ccc(OC(F)(F)F)cc2Oc2ccccc2OC(F)F)c1
3. NS(=O)(=O)c1cccc(NC(=O)c2c(Cl)cc(Cl)cc2Oc2ccc(F)cc2)c1
4. COc1ccc(Oc2cc(C(F)(F)F)ccc2C(=O)Nc2cccc(S(N)(=O)=O)c2)cc1Cl

Data returned:
105
96
97
91
